target: Akt2 (Homo sapiens, UniProt P31751); construct: unspecified tag, removed (detagged) (cleaved yes); purchased SignalChem and Proteros (Akt2); Merck Millipore (PDK1) 14-452 (PDK1); none given for Akt2; experiment: Akt activation assay (PDK1-mediated activation, LANCE Ultra crosstide TR-FRET), Akt2; type: biochemical; conditions: read-out: Biological Assay 1 IC50 (nM) Akt2
Sequence (P31751 whole entry): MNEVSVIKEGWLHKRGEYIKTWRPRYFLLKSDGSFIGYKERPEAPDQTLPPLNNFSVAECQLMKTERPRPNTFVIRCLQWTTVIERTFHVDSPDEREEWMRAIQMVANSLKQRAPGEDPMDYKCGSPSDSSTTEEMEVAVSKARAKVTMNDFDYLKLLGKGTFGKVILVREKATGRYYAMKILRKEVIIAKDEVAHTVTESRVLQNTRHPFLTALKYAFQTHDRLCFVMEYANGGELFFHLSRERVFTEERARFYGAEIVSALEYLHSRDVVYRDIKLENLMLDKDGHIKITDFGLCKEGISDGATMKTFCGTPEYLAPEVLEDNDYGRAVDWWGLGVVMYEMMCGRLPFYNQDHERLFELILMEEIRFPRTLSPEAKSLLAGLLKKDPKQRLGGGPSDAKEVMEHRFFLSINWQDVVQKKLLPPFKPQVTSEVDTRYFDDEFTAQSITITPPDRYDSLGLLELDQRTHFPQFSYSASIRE
OBSERVED_PROPERTY: IC50 (nM)

See these solved cases before continuing.
Prompt: IC50 for CC(=O)N(C)[C@H]1CC[C@H](CC(=O)Nc2cnc(-c3ccc(C4(N)CC(C)(O)C4)c(F)c3)c(-c3ccccc3)c2)CC1 (stereo partly drawn) [Example 124] ?
Response: 880

Prompt: IC50 for CN(C(=O)C1CC1)[C@H]1CC[C@H](CC(=O)Nc2cc(-c3ccccc3)c(-c3ccc([C@]4(N)C[C@](C)(O)C4)cc3)nn2)CC1 [Example A78] ?
Response: 71

Prompt: IC50 for CCOC(=O)N(C)[C@H]1CC[C@H](CC(=O)Nc2cc(-c3ccccc3)c(-c3ccc([C@]4(N)C[C@](C)(O)C4)cc3)cn2)CC1 [Example A73] ?
Response: 130

I: COC(=O)N[C@H]1CC[C@H](CC(=O)Nc2cc(-c3ccccc3)c(-c3ccc([C@]4(N)C[C@](C)(O)C4)cc3)cn2)CC1 [Example 103]
II: NC1(c2ccc(-c3ncc(NC(=O)C[C@H]4CC[C@H](NC(=O)C(F)F)CC4)cc3-c3ccccc3)cc2)CC1 [Example A42]
III: CC(=O)N[C@H]1CC[C@H](CC(=O)Nc2cnc(-c3ccc(C4(N)CCC4)cc3)c(-c3ccsc3C)c2)CC1 [Example 18]
IV: CCC(=O)N(C(C)C)[C@H]1CC[C@H](CC(=O)Nc2cc(-c3ccccc3)c(-c3ccc([C@]4(N)C[C@](C)(O)C4)cc3)nn2)CC1 [Example 104]
Prompt: // sort entries: IC50, high to low Please respond by ranking the labels in the order requested.
Response: III, II, IV, I
(III: 6900 nM, II: 810 nM, IV: 120 nM, I: 78 nM)
